Tested on: HSC1 (primary human Schwann cells)
Test: drug sensitivity score (DSS, CellTox-Green cytotoxicity, 72 h) (DSS (dimensionless)); higher = more cytotoxic; extreme values may be limits of the assay
measured quantity: drug sensitivity score
Give the figure by itself; no unit, no explanation.

Requested field: drug sensitivity score. Item: CCNC(=O)c1noc(-c2cc(C(C)C)c(O)cc2O)c1-c1ccc(CN2CCOCC2)cc1 [NVP-AUY922] (max concentration tested 1000 nM) 19.6

Try O=C(O)CC[C@H]1CC[C@@](c2cc(F)ccc2F)(S(=O)(=O)c2ccc(Cl)cc2)CC1 [MK-0752] (max concentration tested 1000 nM) next. 0

Try CCc1cnn2c(NCc3ccc[n+]([O-])c3)cc(N3CCCC[C@H]3CCO)nc12 [Dinaciclib] (max concentration tested 1000 nM) next. 5.96

Try CO[C@@H](C(=O)N1Cc2[nH]nc(NC(=O)c3ccc(N4CCN(C)CC4)cc3)c2C1)c1ccccc1 [Danusertib] (max concentration tested 10000 nM) next. 6.43

Try CCn1c(C(=O)N(C2CC2)C2CC2)cc2c3c(ncn3C)c(Nc3cc(C)n(C)n3)nc21 (max concentration tested 10000 nM) next. 0

Try CC(C)c1cc(-c2n[nH]c(=O)n2-c2ccc3c(ccn3C)c2)c(O)cc1O [Ganetespib] (max concentration tested 1000 nM) next. 21.1

Try CCOc1cc2ncc(C#N)c(Nc3ccc(OCc4ccccn4)c(Cl)c3)c2cc1NC(=O)/C=C/CN(C)C [Neratinib] (max concentration tested 1000 nM) next. 0

Try O=C(NC[C@H](O)CO)c1ccncc1Nc1ccc(I)cc1F [Pimasertib] (max concentration tested 10000 nM) next. 0.153

Try Cc1cc(C(C)Nc2ccccc2)c2nc(N3CCOCC3)cc(=O)n2c1 (stereo not drawn) [TGX-221] (max concentration tested 10000 nM) next. 0

Try CC(C)C[C@H](NC(=O)[C@@H](COC(C)(C)C)NC(=O)[C@H](Cc1ccc(O)cc1)NC(=O)[C@H](CO)NC(=O)[C@H](Cc1c[nH]c2ccccc12)NC(=O)[C@H](Cc1cnc[nH]1)NC(=O)[C@@H]1CCC(=O)N1)C(=O)N[C@@H](CCCNC(=N)N)C(=O)N1CCC[C@H]1C(=O)NNC(N)=O [Goserelin] (max concentration tested 10000 nM) next. 0

Try CC[C@H](Nc1ncnc2[nH]cnc12)c1nc2cccc(F)c2c(=O)n1-c1ccccc1 [Idelalisib] (max concentration tested 10000 nM) next. 0

Try CN(C)C[C@@H]1CCn2cc(c3ccccc32)C2=C(C(=O)NC2=O)c2cn(c3ccccc23)CCO1 [Ruboxistaurin] (max concentration tested 10000 nM) next. 7.83

Try Cc1cccc(-c2nn3c(c2-c2ccnc4ccc(C(N)=O)cc24)CCC3)n1 [Galunisertib] (max concentration tested 1000 nM) next. 0

Try O=C1CCC(N2C(=O)c3ccccc3C2=O)C(=O)N1 (stereo not drawn) [Thalidomide] (max concentration tested 10000 nM) next. 0

Try CN(C)C(=N)NC(=N)N [Metformin aq] (max concentration tested 100000 nM) next. 0

Try C=CC(=O)N1CCC[C@@H](n2nc(-c3ccc(Oc4ccccc4)cc3)c3c(N)ncnc32)C1 [Ibrutinib] (max concentration tested 1000 nM) next. 0

Try FC(F)c1nc2ccccc2n1-c1nc(N2CCOCC2)nc(N2CCOCC2)n1 [ZSTK474] (max concentration tested 10000 nM) next. 0

Try NS(=O)(=O)OC[C@@H]1C[C@@H](n2ccc3c(N[C@H]4CCc5ccccc54)ncnc32)C[C@@H]1O [Pevonedistat] (max concentration tested 10000 nM) next. 4.84

Try Cc1cnc(NC(=O)Nc2cc(Br)c(C)cc2OC[C@@H]2CNCCO2)cn1 [Rabusertib] (max concentration tested 1000 nM) next. 0.0001

Try CC[C@@]1(O)C(=O)OCc2c1cc1n(c2=O)Cc2cc3ccccc3nc2-1 [Camptotechin] (max concentration tested 5000 nM) next. 20.8

Try CC[C@H](CO)Nc1nc(NCc2ccccc2)c2ncn(C(C)C)c2n1 [Seliciclib] (max concentration tested 10000 nM) next. 0

Try Cn1c(Nc2ccc(C(F)(F)F)cc2)nc2cc(Oc3ccnc(-c4ncc(C(F)(F)F)[nH]4)c3)ccc21 [RAF265] (max concentration tested 1000 nM) next. 0

Try CNC(=O)c1ccc(N2C(=S)N(c3cnc(C#N)c(C(F)(F)F)c3)C(=O)C23CCC3)cc1F [ARN 509] (max concentration tested 10000 nM) next. 0

FYI, the data here is from the supplement of paper PMC5579334.
